TARGET_UNDER_TEST: Short transient receptor potential channel 6 (Mus musculus)
ASSAY_OVERVIEW: TRPC6 blockade by TRPC4 inhibitor hits – cell-based, HEK293, membrane potential dye, duplicate, selectivity assay for TRPC4 inhibitor project, confirmation (AID 434948)
ASSAY_CONDITIONS: HEK293 TRPC6, membrane potential dye fluorescence, at 10 µM, stimulated with maximal-effect acetylcholine
Activity calls are given as the source filed them.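 How the source made its calls: active means active in primary screen and both duplicates, each dropping signal beyond three positive-control SD with fluorescence still positive; inactive means the rest.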
Log the outcome using a class from active, inactive

[ask] Could you please tell me the result logged for CC1(C#CC[N+]2(C)CCCCC2)CCC2C(O1)c1ccccc1OC2(C)C (stereo not drawn) in this assay?
[reply] inactive

[ask] Could you please tell me the result logged for CCOC(=O)C1(Cc2ccccc2C)CCCN(Cc2ccc(NC(C)=O)cc2)C1 (stereo not drawn) in this assay?
[reply] inactive

[ask] Could you please tell me the result logged for `Cc1cc(SCC(=O)c2cccc([N+](=O)[O-])c2)nc(=O)[nH]1` in this assay?
[reply] inactive

[ask] Could you please tell me the result logged for `Cn1c2ccccc2c(=O)c2c(=O)n(C3CCCCC3)c(-c3ccco3)nc21` in this assay?
[reply] inactive

[ask] Could you please tell me the result logged for `CC(=O)OCCCN1C(=O)c2cccc3cc(Br)cc(c23)C1=O` in this assay?
[reply] inactive

[ask] Could you please tell me the result logged for `COc1cc(CNC2CCCC2)c(Br)cc1OC1CCCC1` in this assay?
[reply] active

[ask] Could you please tell me the result logged for Cc1ccccc1NC(=S)NCC(c1cccnc1)N(C)C (stereo not drawn) in this assay?
[reply] inactive

[ask] Could you please tell me the result logged for `CCN1C2=NCCCN2c2cc(C)c(C)cc21` in this assay?
[reply] inactive

[ask] Could you please tell me the result logged for `COc1cccc(OCC(=O)NC2CCCCC2)c1` in this assay?
[reply] inactive

[ask] Could you please tell me the result logged for `OC(c1ccccc1)(c1ccccc1)C1CCN(C(=S)NC2CCCC2)CC1` in this assay?
[reply] inactive

[ask] Could you please tell me the result logged for `Cc1cccc(N2CCN(C(=O)C3(S(=O)(=O)c4ccc(Cl)cc4)CC3)CC2)c1C` in this assay?
[reply] inactive

[ask] Could you please tell me the result logged for `CCOCc1cn(CC(=O)c2ccc(Cl)cc2)c(C)nc1=N` in this assay?
[reply] inactive

[ask] Could you please tell me the result logged for `CNCCOc1ccc(Cl)c(Cl)c1` in this assay?
[reply] inactive

[ask] Could you please tell me the result logged for `COc1ccccc1C(=O)Nc1ccc2c(c1)CCCN2C(=O)c1cccs1` in this assay?
[reply] inactive

[ask] Could you please tell me the result logged for `NC(N)=NN=C1CCCCCCCCCCC1` in this assay?
[reply] inactive

[ask] Could you please tell me the result logged for `COc1cc(CN2CCC(CO)(CCOc3ccccc3)CC2)cc(OC)c1` in this assay?
[reply] inactive

[ask] Could you please tell me the result logged for `CC(C)C(=O)N1CCN(c2ccccc2NC(=O)c2ccco2)CC1` in this assay?
[reply] inactive

[ask] Could you please tell me the result logged for `NS(=O)(=O)c1ccc(Oc2ccc(S(N)(=O)=O)cc2)cc1` in this assay?
[reply] inactive

[ask] Could you please tell me the result logged for COc1ccc(C2NC(C(=O)O)Cc3c2[nH]c2ccccc32)cc1CN1CCN(c2ccc(F)cc2)CC1 (stereo not drawn) in this assay?
[reply] inactive

[ask] Could you please tell me the result logged for `CC(=O)Nc1ccc(S(=O)(=O)N2CCN(CCCOc3cc(C)ccc3C)CC2)cc1` in this assay?
[reply] inactive

[ask] Could you please tell me the result logged for `Cc1cc(C)c(S(=O)(=O)N2CCN(C)CC2)c(C)c1` in this assay?
[reply] inactive

[ask] Could you please tell me the result logged for `Cn1c(-c2ccccc2)cnc1NCc1ccc(F)cc1` in this assay?
[reply] inactive

[ask] Could you please tell me the result logged for `CN1CCN(c2ccc(NC(=O)c3ccc(-c4ccc(Cl)cc4)o3)cc2)CC1` in this assay?
[reply] inactive
